- Test system: IL-23 mediated STAT3 signalling (DB cells)
- assayComment: Functional inhibition of IL-23 mediated STAT3 signalling (phospho-STAT3 Tyr705) in DB cells
- Assay type: cell-based, human
- conditionDetails: Table 3-2, EC80 of hIL-23, read-out: hIL-23 (pSTAT3) antagonist IC50
pIC50: −log10 of the molar value. *1 amine or outer side, *2 acyl side, *3 side chain or, on linkers, in order; H or OH if unused. Where a SMILES comes first, the peptide text is derived from it. Bridges are numbered along the chain shown (N, C = ends). [ ]: non-standard residue; d: D form. The star is where a group is joined. 2Nal = N[C@@H](Cc1ccc2ccccc2c1)C(=O)O; AEF = NCCOc1ccc(C[C@H](N)C(=O)O)cc1; X1 = O=C(Cc1ccc(CN[*:1])cc1)[*:2]; 3Pal = N[C@@H](Cc1cccnc1)C(=O)O; αMeL = CC(C)C[C@](C)(N)C(=O)O; Pyrrolidide = C1CCN(*)C1; Dab = NCC[C@H](N)C(=O)O
measuredAttribute: pIC50

compound	observedMeasurement
CC(C)C[C@]1(C)NC(=O)[C@H](Cc2ccc3ccccc3c2)NC(=O)[C@H](Cc2ccc(OCCN)cc2)NC(=O)[C@@H]2CCNC(=O)CC[C@H](NC(=O)[C@H](CO)NC(=O)Cc3ccc(cc3)CNC(=O)CC[C@@H](C(=O)N[C@@H](CCN)C(N)=O)NC1=O)C(=O)N[C@@H](Cc1c[nH]c3ccccc13)C(=O)N[C@@H](CCC(=O)N1CCCC1)C(=O)N2 [Ref 146, reference compound] ([X1]SEWE(Pyrrolidide)[Dab][AEF][2Nal][αMeL]E[Dab]-NH2; lactam 3-6, N-10)	7.38
CNC(=O)[C@H](Cc1cccnc1)NC(=O)[C@H](CCN)NC(=O)[C@@H]1CCC(=O)NCc2ccc(cc2)CC(=O)N[C@@H](CO)C(=O)N[C@H]2CCC(=O)NCC[C@H](NC(=O)[C@H](CCNC(C)=O)NC(=O)[C@H](Cc3c[nH]c4ccccc34)NC2=O)C(=O)N[C@@H](Cc2ccc(OCCN)cc2)C(=O)N[C@@H](Cc2ccc3ccccc3c2)C(=O)N[C@@](C)(CC(C)C)C(=O)N1 [Compound 25] ([X1]SEW[Dab](Ac)[Dab][AEF][2Nal][αMeL]E[Dab][3Pal]-NHMe; lactam 3-6, N-10)	10.12
